Target under test: T1, epitope tag peptide SRLEEELRRRLTE (SEQ ID NO: 2), biotinylated (also: biotinylated (site and linker not given here))
T1 construct: Rationally designed peptide; also called ALFA-tag
T1 peptide: SRLEEELRRRLTE
Run description: BLI (Octet), biotinylated peptide on SAX2.0 biosensors, 1:1 global fit
Ends that are not written are not given here.
Quantity kind: kon (M⁻¹ s⁻¹)
Write the number in M⁻¹ s⁻¹ without appending the unit.

Sure, the documented kon for Variant 12 of humanized NbALFA (VHH) VHH: EVQLVESGGGLVQPGGSLRLSCAASGVTISALNAMAMGWYRQAPGKRREMVAAVSERGNTMYRESVKGRFTISRDNAKRMVYLQMNSLRAEDTAVYYCHVLEDRVDSFHDYWGQGTQVTVSS is 609000

Looking up Variant 11 of humanized NbALFA (VHH) VHH: EVQLVESGGGLVQPGGSLRLSCAASGVTISALNAMAMGWYRQAPGKRREMVAAVSERGNAMYRESVKGRFTISRDNAKRMVYLQMNSLRAEDTAVYYCHVLEDRVDSFHDYWGQGTQVTVSS , I found its kon recorded as 622000

Sure, the documented kon for wtNbALFA (original alpaca-derived NbALFA single-domain antibody) (VHH, VHH; Any purification tag on the construct used in the BLI and SpA assays is not described; also called wild type NbALFA) VHH: EVQLQESGGGLVQPGGSLRLSCTASGVTISALNAMAMGWYRQAPGERRVMVAAVSERGNAMYRESVQGRFTVTRDFTNKMVSLQMDNLKPEDTAVYYCHVLEDRVDSFHDYWGQGTQVTVSS is 399000

// kon lookup, binder = Variant 9 of humanized NbALFA (VHH, Further engineered humanized variant; Any tag on the tested construct is not described) VHH: EVQLVESGGGLVQPGGSLRLSCAASGVTISALNAMAMGWYRQAPGKRREMVAAVSERGNAMYRESVQGRFTISRDNAKRMVYLQMNSLRAEDTAVYYCHVLEDRVDSFHDYWGQGTQVTVSS , result: 203000

kon measured on Variant 13 of humanized NbALFA (VHH) VHH: EVQLVESGGGLVQPGGSLRLSCAASGVTISALNAMAMGWYRQAPGKRREMVAAVSERGNTYYRDSVKGRFTISRDNAKRMVYLQMNSLRAEDTAVYYCHVLEDRVDSFHDYWGQGTQVTVSS = 767000

Variant 10 of humanized NbALFA (VHH) VHH: EVQLVESGGGLVQPGGSLRLSCAASGVTISALNAMAMGWYRQAPGKRREMVAAVSERGNTMYRESVQGRFTISRDNAKRMVYLQMNSLRAEDTAVYYCHVLEDRVDSFHDYWGQGTQVTVSS yielded kon of 480000

What the record says about Variant 14 of humanized NbALFA (VHH) VHH: EVQLVESGGGLVQPGGSLRLSCAASGVTISALNAMAMGWYRQAPGKRREMVAAVSERGNAMYRESVKGRFTISRDNSKNTLYLQMNSLRAEDTAVYYCHVLEDRVDSFHDYWGQGTQVTVSS : kon is 596000

Data credit: patent US20260008872A1
